# Target Desc: GABA receptors
# Assay Details: Binding to other brain receptors: GABA
# Condition Parameters: negligible affinity
Please provide measured IC50 for the entries that follow.

Exercise: Return the recorded IC50 value; entry: `CCN(CC)c1ccc(S(=O)(=O)N2CCCCC2=O)cc1`
Key: 5 to 10 µM

Exercise: Return the recorded IC50 value; entry: `O=C1CCCCN1S(=O)(=O)c1ccc(N2CCCCCC2)cc1`
Key: 5 to 10 µM

Exercise: Return the recorded IC50 value; entry: `O=C1CCCCN1S(=O)(=O)c1ccc(N2CCCCC2)cc1`
Key: 5 to 10 µM

----------
Please provide measured pIC50 for the entries that follow.
# System: isolated guinea pig ileum, contractions induced by barium chloride
# Assay Details: Antagonist action on contractions induced by barium chloride, isolated guinea pig ileum
# Condition Parameters: barium chloride 2×10^-4 M; contact time one minute; 37° C.; read-out: Antagonist to different agents (IC50), BaCl2
pIC50: −log10 of the molar value.

Exercise: Return the recorded pIC50 value; entry: CCN(CC)c1ccc(S(=O)(=O)N2CCCCC2=O)cc1 [Example 2]
Key: < 5.00

Exercise: Return the recorded pIC50 value; entry: O=C1CCCCN1S(=O)(=O)c1ccc(N2CCCCC2)cc1 [Example 4]
Key: < 5.00

Exercise: Return the recorded pIC50 value; entry: O=C1CCCCN1S(=O)(=O)c1ccc(N2CCCCCC2)cc1 [Example 5]
Key: < 5.00

Exercise: Return the recorded pIC50 value; entry: COc1ccc(Cc2nccc3cc(OC)c(OC)cc23)cc1OC [Papaverine, papaverine, reference compound]
Key: 4.35

This collection of values is drawn from patent US5041436A.
